# Test system: SNB-75 CNS
# measurement protocol: NCI tumour cell line growth inhibition, 48 h
Measured TGI values are reported for all entries that follow.
assay endpoint: TGI

| molecule | reported |
| --- | --- |
| CCC(C)(C)NC1=C(NC(C)=O)C(=O)c2ccccc2C1=O | > 75 µM |
| Cc1ccc(NC2=C(Cl)C(=O)c3nc(C)ccc3C2=O)cc1 | 3.72 µM |
| c1ccc(-c2cc(-c3cc(-c4ccccn4)[nH]n3)n[nH]2)nc1 | > 100 µM |
| C=C(C)C1CC[C@]2(C(=O)O)CCC3(C)[C@H](CCC4[C@@]5(C)CC[C@H](OC6OC(CO)C(O)C6OC6OC(C)C(O)C(O)C6O)[C@@](C)(CO)C5CC[C@]43C)C12 (stereo not given in full) | > 100 µM |
| CC(C)CCNC(=O)c1ccc(CNC(=O)/C=C/c2ccc(-c3ccccc3[N+](=O)[O-])o2)cc1 | > 100 µM |

* * *

# Tested on: SK-MEL-5 melanoma
# measurement protocol: NCI tumour cell line growth inhibition, 48 h

| compound | TGI |
| --- | --- |
| Cc1ccc(S(=O)(=O)C2=c3ncccc3=C3C(=O)c4ccccc4C(=O)C32)cc1 (stereo not given) | > 15 µM |
| CC(C)(C)OC(=O)C(C1NC(C(=O)O)C(C)(C)S1)N1C(=O)c2ccccc2C1=O (stereo not given) | > 100 µM |
| CC1=CCC2(C#N)CCC1C2=O (stereo not given) | > 100 µM |
| c1ccc(C2CC(N3CCOCC3)=Nc3ccccc3N2)cc1 (stereo not given) | > 100 µM |
| C(/COc1cccnc1)=N\NC1=NCCN1 | > 100 µM |

* * *

# Tested on: NCI-H460 lung
# measurement protocol: NCI tumour cell line growth inhibition, 48 h
assay endpoint: TGI

| compound | reported |
| --- | --- |
| NC(N)=NC(N)=NCCc1ccccc1 | > 100 µM |
| CC1=CCC2(C#N)CCC1C2=O (stereo not given) | > 100 µM |
| COC(=O)C1CCc2c(OC)ccc(OC)c2C1=O (stereo not given) | > 100 µM |
| CNC(=O)OCc1nc(S(C)=O)n(C)c1COC(=O)NC (stereo not given) | > 100 µM |
| COc1cc(OC)c(/C=N/N=C(\N)NO)c(OC)c1 | > 100 µM |
| O=C(NCCNCCO)c1ccc2oc3cc4ccccc4c(=O)n3c2c1 | 15.4 µM |
| Cc1c2n(c3ccccc13)CC1C2N(C)OC1(C)C (stereo not given) | > 100 µM |
| CC(C)(C)SC1=CCC[C@@H](P(=O)(c2ccccc2)c2ccccc2)[C@@H]2CCC[C@@H]12 | 30.8 µM |
| CCCNc1[nH]c(C(C)=O)c(N)c1C(=S)Nc1ccccc1 | > 100 µM |
| CC1=CC(C)C(O)C(C)/C=C/C(O)C/C=C(/C)C(=O)CC(O)C(C)\C=C/C=C/C=C\C(=O)NC2=C(O)c3cc(C)c(O)c(c3C(=O)C2=O)C1=O (stereo not given) | > 100 µM |

* * *

# Test system: M14 melanoma
# measurement protocol: NCI tumour cell line growth inhibition, 48 h
TGI: recorded values
assay endpoint: TGI

| compound | study target | assay endpoint | reported |
| --- | --- | --- | --- |
| CCOC(=O)c1cc(C(=O)c2cc(OC)cc(OC)c2)n2ncccc12 | M14 melanoma | TGI | > 100 µM |
| COC(=O)C1=NN2c3ccccc3CN([C@@H](C)c3ccccc3)C(=O)[C@@H]2C1 | M14 melanoma | TGI | 57.5 µM |
| CC1(C)[C@H](O)CC[C@]2(C)C3=CC[C@@]4(C)[C@@H]5C[C@](C)(CO)CC[C@]5(C)CC[C@]4(C)C3=CC[C@@H]12 | M14 melanoma | TGI | > 100 µM |
| c1ccc2cc3n[se]nc3cc2c1 | M14 melanoma | TGI | > 100 µM |
| CN1c2ccccc2C2c3c(O)ccc(O)c3C=C([N+](=O)[O-])C21 (configuration not stated) | M14 melanoma | TGI | 1.44 µM |
| CCOC(=O)Cn1nc2ccc(Nc3nc4ccccc4nc3C(=O)OCC)cc2n1 | M14 melanoma | TGI | > 100 µM |
| C=CC(=O)Nc1cc2c(Nc3ccc(OCc4ccccn4)c(Cl)c3)ncnc2cc1OCCN1CCOCC1 | M14 melanoma | TGI | 19.6 µM |
